Provide the recorded log10 of IC50 for the entries that follow.
Tested on: Human umbilical vein endothelial cells
Experiment: inhibition of human umbilical vein endothelial cell growth (MTT)
Format: cell-based
Condition Description: Homo sapiens, Endothelial cell, 120 h, rFGF 2 ng/ml, 5-day culture, concentration giving 50% OD value of control, read-out: IC₅₀
Log scale reminder: IC50 in ng/mL, then log10 taken.

Observe how each entry below is paired with its result.
{"Smiles Text": "CO[C@@H]1[C@@H](N)CC[C@]2(CO2)[C@H]1[C@@]1(C)O[C@@H]1CC=C(C)C", "Target Under Test": "Human umbilical vein endothelial cells", "log10 of IC50": 0.98}
{"Smiles Text": "CO[C@@H]1[C@H](NC(=O)c2ccccc2)CC[C@]2(CO2)[C@H]1[C@@]1(C)O[C@@H]1CC=C(C)C", "Target Under Test": "Human umbilical vein endothelial cells", "log10 of IC50": -0.70}
{"Smiles Text": "CO[C@@H]1[C@H](N)CC[C@]2(CO2)[C@H]1[C@@]1(C)O[C@@H]1CC=C(C)C", "Target Under Test": "Human umbilical vein endothelial cells", "log10 of IC50": 0.90}
{"Smiles Text": "CO[C@@H]1[C@H](NC(=O)Nc2cccc3ccccc23)CC[C@]2(CO2)[C@H]1[C@@]1(C)O[C@@H]1CC=C(C)C", "Target Under Test": "Human umbilical vein endothelial cells", "log10 of IC50": -0.47}
{"Smiles Text": "CO[C@@H]1[C@H](NC(=O)NCCCl)CC[C@]2(CO2)[C@H]1[C@@]1(C)O[C@@H]1CC=C(C)C", "Target Under Test": "Human umbilical vein endothelial cells", "log10 of IC50": 0.06}

Asked: Note log10 of IC50 for the compound shown: `CO[C@@H]1[C@H](NC(=O)NC(=O)CCl)CC[C@]2(CO2)[C@H]1[C@@]1(C)O[C@@H]1CC=C(C)C`
Given back: -1.24
